- method.summary: Pharmacokinetic study of the inhibitors in mice blood plasma (PO and IV)
- Format: in vivo
- study.conditions: mouse, plasma, po, 30 mg/kg, PO 30 mg/kg, 7 h, n=3 (outliers excluded), read-out: Concentration in Plasma, Mean
assay.metric: concentration at 7 h (ng/mL)

structure_smiles=COc1cccc(CNc2ccc(S(=O)(=O)Nc3cccc(Cl)c3)cc2)c1O readout_number=15.2

P. COc1cccc(CNc2ccc(S(=O)(=O)Nc3cccc(C(F)(F)F)c3)cc2)c1O
Q. COc1cccc(CNc2ccc(S(=O)(=O)Nc3cccc(C4(C(F)(F)F)CC4)c3)cc2)c1O
Hi there! Just curious which has the higher concentration at 7 h between P and Q . Returns: label corresponding to the selected item.
P
(P: 91.3 ng/mL, Q: 29 ng/mL)

----------
- method.summary: Pharmacokinetic study of the inhibitors in mice blood plasma (PO and IV)
- Format: in vivo
- study.conditions: mouse, plasma, po, 30 mg/kg, PO 30 mg/kg, 4 h, read-out: Concentration in Plasma, Mouse 2
assay.metric: concentration at 4 h (µg/mL)

structure_smiles=COc1cccc(CNc2ccc(S(=O)(=O)Nc3cccc(C(F)(F)F)c3)cc2)c1O readout_number=0.103
structure_smiles=COc1cccc(CNc2ccc(S(=O)(=O)Nc3cccc(Cl)c3)cc2)c1O readout_number=0.0898

----------
- method.summary: Pharmacokinetic study of the inhibitors in mice blood plasma (PO and IV)
- Format: in vivo
- study.conditions: mouse, plasma, po, 30 mg/kg, PO 30 mg/kg, 4 h, read-out: Concentration in Plasma, Mouse 3
assay.metric: concentration at 4 h (ng/mL)

a. COc1cccc(CNc2ccc(S(=O)(=O)Nc3cccc(C4(C(F)(F)F)CC4)c3)cc2)c1O [Compound A4]
b. COc1cccc(CNc2ccc(S(=O)(=O)Nc3cccc(Cl)c3)cc2)c1O [Compound A1]
c. COc1cccc(CNc2ccc(S(=O)(=O)Nc3cccc(C(F)(F)F)c3)cc2)c1O [Compound A2]
rank_up(items): orders items by reported concentration at 4 h in ascending numerical order. Give me the labels in the order the question wants.
b, a, c
(b: 20 ng/mL, a: 33.8 ng/mL, c: 81.2 ng/mL)
